biological target: Voltage-gated inwardly rectifying potassium channel KCNH2 (Homo sapiens); assay: Human Ether-a-go-go-Related Gene (hERG) channel small molecule antagonists: fluorescence cell-based qHTS assay (AID 1671200); conditions: hERG-U2OS cells, FluxOR thallium flux fluorescence; series mostly up to 76.8 µM;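 note: hERG-expressing U2OS cells given a thallium stimulus after FluxOR II dye loading; nearly all actives have a fitted effect of over 50% in size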
Results filed as inconclusive are left out. Calls of active or inactive are those of the source. Calls come from the whole dose curve; as a rule, active = well fitted inhibition curve with a large enough effect in the repeat runs; inconclusive = weak or mixed curves; inactive = flat fitted curve, though single readings scatter.
endpoint.name: outcome

{"columns": ["compound", "endpoint.name", "result"],
 "data": [
  ["COC(=O)c1cc(Cl)ccc1OC", "outcome", "inactive"],
  ["Clc1ccc2nsnc2c1NC1=NCCN1", "outcome", "inactive"],
  ["c1cc(C(c2ccc(OCC3CO3)cc2)c2ccc(OCC3CO3)cc2)ccc1OCC1CO1 (stereo not drawn)", "outcome", "inactive"]
]}

====

experiment: qHTS assay to identify small molecule antagonists of the estrogen related receptor signaling pathway with the pleiotropic PPARgamma coactivator (PGC) from Tox21 10K library - cell viability counter screen (AID 1224840); conditions: PGC/ERR reporter cells viability, CellTiter-Fluor, 17.5 h; series mostly up to 92.4 µM; note: nearly all actives have a fitted effect of over 40% in size
Results filed as inconclusive are left out. Active and inactive are the calls of the source. Calls come from the whole dose curve; as a rule, active = well fitted cell-killing curve with a large enough effect in the repeat runs (not every such curve was filed as active); inconclusive = weak or mixed curves, or effect the other way; inactive = no such curve, though single readings can be large or run the other way.
Write down the outcome that applies. Available outcomes: active, inactive

Answered cases to consult:
{"columns": ["compound", "class.name"],
 "data": [
  ["On1ccccc1=S", "active"],
  ["CC1=C(C(=O)OC(C)C)C(c2cccc([N+](=O)[O-])c2)C(C(=O)OC2CN(C(c3ccccc3)c3ccccc3)C2)=C(N)N1 (stereo unspecified)", "active"]
]}

QUERY: Outcome logged for `CCC(N)(CO)CO` in this assay:
RESULT: inactive

QUERY: For NC(=O)N1C(=O)C(C(=O)c2cc(Cl)cs2)c2cc(F)c(Cl)cc21 (stereo unspecified) , which call appears in the assay record?
RESULT: active

QUERY: State the result this test recorded for `COc1cc(-c2ccc(N=C=O)c(OC)c2)ccc1N=C=O` .
RESULT: inactive

QUERY: Outcome? `c1ccc(CSCc2ccccc2)cc1`
RESULT: inactive

QUERY: Answer briefly: the call reported for `O=[N+]([O-])c1ccccc1Nc1ccccc1` in this assay.
RESULT: inactive

QUERY: Please share the test call associated with `O=C(O)c1cc(O)c2c(c1)C(=O)c1cccc(O)c1C2=O` .
RESULT: inactive

QUERY: Tell me the assay call for `COC(=O)c1cc(Cl)ccc1OC` please.
RESULT: inactive

QUERY: Test call for this compound, please: `Oc1ccc(N=Nc2ccccc2)cc1`
RESULT: active

QUERY: Each compound tested received a call. Report the one for `CCCCCCCCCCCC[N+](C)(C)CCCCCCCCCCCC` .
RESULT: active

QUERY: Tell me the assay call for CC(C)(C)C(=O)OCOC(=O)C1N2C(=O)CC2S(=O)(=O)C1(C)C (stereo unspecified) please.
RESULT: inactive

QUERY: Lab log entry: `CCCCCCCCCCCC(=O)NCCCN(C)C` — outcome as called in the assay?
RESULT: active

====

assay: qHTS assay to identify small molecule antagonists of the progesterone receptor (PR) signaling pathway - cell viability counter screen (AID 1346798); details: PR-UAS-bla HEK293T viability, CellTiter-Glo luminescence, 16 h; series mostly up to 92.4 µM; note: nearly all actives have a fitted effect of over 50% in size
Records with an inconclusive call do not appear. Calls of active or inactive are those of the source. The call rests on the fitted dose curve; in most records, active means well fitted cell-killing curve with a large enough effect in the repeat runs; inconclusive means weak or mixed curves, or effect the other way; inactive means no such curve, though single readings can be large or run the other way.
API: response.call in active, inactive

{"columns": ["compound", "class.name"],
 "data": [
  ["O=[N+]([O-])c1cc([N+](=O)[O-])c2ccc(S(=O)(=O)O)cc2c1O", "inactive"],
  ["Oc1cccc2cc3cccc(O)c3c(O)c12", "inactive"],
  ["CC(C)(C)C1CCC(CC2=C(O)c3ccccc3C(=O)C2=O)CC1 (stereo not drawn)", "inactive"],
  ["C=CC(=O)OCC(CO)(COCC(COC(=O)C=C)(COC(=O)C=C)COC(=O)C=C)COC(=O)C=C", "active"]
]}

QUERY: Outcome logged for `O=C1Cc2cc(CCN3CCN(c4nsc5ccccc45)CC3)c(Cl)cc2N1` in this assay:
RESULT: inactive

QUERY: Hi team, can someone confirm the assay call for `CCCCN(CCCC)c1ccc(C(=O)c2ccccc2C(=O)O)c(O)c1` ?
RESULT: inactive

QUERY: Returns: the outcome recorded for `O=C(c1ccc(F)cc1)C1CCN(CCn2c(=O)[nH]c3ccccc3c2=O)CC1` in this assay.
RESULT: inactive

QUERY: // return assay outcome for `O=C1C=CC(=O)N1`
RESULT: active

QUERY: What call does the record list for CCCCCCCCNC(C)C(O)c1ccc(SC(C)C)cc1 (stereo not drawn) ?
RESULT: active

QUERY: Hello, I am checking results. What call was entered for `Clc1ccc2nsnc2c1NC1=NCCN1` ?
RESULT: inactive

QUERY: Outcome logged for `CN(C)[C@@H]1C(=O)C(C(N)=O)=C(O)[C@@]2(O)C(=O)C3=C(O)c4c(O)ccc(Cl)c4[C@@H](O)[C@H]3C[C@@H]12` in this assay:
RESULT: inactive

QUERY: Check the results log: what was the call for `O=[N+]([O-])c1cc(Cl)c(Cl)c(Cl)c1Cl` ?
RESULT: inactive

QUERY: Call for entry CCCN(CCC)C(=O)C(CCC(=O)OCCCN1CCN(CCOC(=O)Cc2c(C)n(C(=O)c3ccc(Cl)cc3)c3ccc(OC)cc23)CC1)NC(=O)c1ccccc1 (stereo not drawn) :
RESULT: inactive

QUERY: State the result this test recorded for `O=C(O)c1cc(O)c2c(c1)C(=O)c1cccc(O)c1C2=O` .
RESULT: inactive

QUERY: Record lookup: outcome of this test for `CCCC(c1cc(C(C)(C)C)c(O)cc1C)c1cc(C(C)(C)C)c(O)cc1C` ?
RESULT: active

QUERY: Just curious, what result did `Clc1ccc2cc3ccccc3cc2c1` get here?
RESULT: inactive

QUERY: Fill in: this test's call for CSc1ccc2c(c1)C(N1CCN(C)CC1)Cc1ccccc1S2 (stereo not drawn) is ___
RESULT: active

QUERY: What did the test return for CCCC1O[C@@H]2C[C@H]3[C@@H]4CCC5=CC(=O)C=C[C@]5(C)[C@H]4[C@@H](O)C[C@]3(C)[C@]2(C(=O)CO)O1 (stereo partly drawn) ?
RESULT: inactive

QUERY: Write down the call the test reported for this compound. Item: `O=C1CCCc2c1cc1ccc3cccc4ccc2c1c34`
RESULT: inactive

QUERY: Record request — test call for `Oc1ccc(N=Nc2ccccc2)cc1`
RESULT: inactive

QUERY: Given `Cc1ccc(O)c2ncccc12` , state the outcome it received in this test.
RESULT: inactive

QUERY: Give the logged outcome of this assay for the following compound: `O=c1[nH]cnc2nc[nH]c12`
RESULT: inactive

QUERY: Each compound tested received a call. Report the one for `Oc1ccc2cc(SSc3ccc4cc(O)ccc4c3)ccc2c1` .
RESULT: inactive

Taken from PubChem BioAssay (Tox21).
